Molecular target: α2C receptor (Homo sapiens, UniProt P18825)
Construct: host or cells: LM(tk-) cells, line L-α2C
Sequence (P18825 whole entry): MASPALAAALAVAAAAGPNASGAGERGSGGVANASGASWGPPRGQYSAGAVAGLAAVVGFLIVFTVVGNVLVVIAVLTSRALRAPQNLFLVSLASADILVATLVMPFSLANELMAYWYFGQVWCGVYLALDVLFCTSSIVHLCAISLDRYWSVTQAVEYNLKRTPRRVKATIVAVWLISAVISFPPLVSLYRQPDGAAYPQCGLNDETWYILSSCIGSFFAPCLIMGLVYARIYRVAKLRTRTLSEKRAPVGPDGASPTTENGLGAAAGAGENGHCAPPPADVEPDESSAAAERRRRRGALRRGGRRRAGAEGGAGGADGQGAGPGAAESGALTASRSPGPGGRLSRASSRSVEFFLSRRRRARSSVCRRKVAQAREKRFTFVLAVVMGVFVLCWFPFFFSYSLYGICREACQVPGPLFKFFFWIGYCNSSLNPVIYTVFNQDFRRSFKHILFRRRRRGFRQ
Assay: Competition binding, [3H]rauwolscine, human α2C receptor
Settings: [3H]rauwolscine, LM(tk-) cell line L-α2C; SEM and n in lines below
Entry flag: TRUE if pKi alpha-2 2c reaches 7; FALSE if it does not.

q: Given CC1=C(C(=O)NCCCN2CCC(c3ccccc3)(c3ccccc3)CC2)C(c2ccc([N+](=O)[O-])cc2)C(C(=O)N(C)C)=C(C)N1 (centres unmarked) , state whether its pKi alpha-2 2c is at least 7.
a: FALSE

* * *

Target: α2C receptor (Homo sapiens, UniProt P18825)
Construct: host or cells: LM(tk-) cells, line L-α2C
Test: Competition binding, [3H]rauwolscine, human α2C receptor
Conditions: [3H]rauwolscine, human receptor, LM(tk-) cell lysates; mean; read-out: PKi alpha-2 2c (converted)
Protocol: The protocols for these experiments are given below. α2 Human Adrenergic Receptors: To determine the potency of […], antagonists at the α2 receptors, LM(tk−) cell lines stably transfected with the genes encoding the α2A, α2B, and α2C receptors were used. The cell line expressing the α2A receptor is designated L-α2A, and was deposited on Nov. […] Equilibrium competition binding assay were performed using [3H]rauwolscine (0.5 nM), and nonspecific binding was determined by incubation with 10 μM phentolamine. […]
outcome-measure: Ki (µM)
Numbers only, in µM.

compound	unit-label	Ki
CCC1=C(C(N)=O)C(c2ccc([N+](=O)[O-])cc2)C(C(=O)NCCCN2CCC(C(=O)OC)(c3ccccc3)CC2)=C(COCCN)N1 (stereo not shown) [Example 234]	µM	0.832
CCOC(=O)C1=C(C)NC(C)=C(C(=O)NCCCN2CCC(C(=O)OC)(c3ccccc3)CC2)C1c1ccc([N+](=O)[O-])cc1 (stereo not shown) [Example 208]	µM	0.977

Consider the following items and state reported Ki for each.
1. CCC1=C(C(=O)NC)C(c2ccc([N+](=O)[O-])cc2)C(C(=O)NCCCN2CCC(C(=O)OC)(c3ccccc3)CC2)=C(COCCN)N1 (stereo not shown) [Example 229]
2. CCC1=C(C(N)=O)C(c2ccc([N+](=O)[O-])cc2)C(C(=O)NCCCN2CCC(C(=O)OC)(c3ccccc3)CC2)=C(CCCCN=[N+]=[N-])N1 (stereo not shown) [Example 165]
3. CCC1=C(C(=O)NC)C(c2ccc([N+](=O)[O-])cc2)C(C(=O)NCCCN2CCC(c3ccccc3)(c3ccccc3)CC2)=C(CCCCN)N1 (stereo not shown) [Example 172]
4. COC(=O)C1(c2ccccc2)CCN(CCCNC(=O)C2=C(C)NC(C)=C(C(=O)OCCO)C2c2ccc([N+](=O)[O-])cc2)CC1 (stereo not shown) [Example 207]

a:
1: 0.891; 2: 1.51; 3: 0.692; 4: 1.78

List Ki for every entry below, keeping the order given.
1. CCNC(=O)C1=C(CC)NC(COCCN)=C(C(=O)NCCCN2CCC(C(=O)OCC)(c3ccccc3)CC2)C1c1ccc([N+](=O)[O-])cc1 (stereo not shown) [Example 192]
2. COC(=O)C1(c2ccccc2)CCN(CCCNC(=O)C2=C(C)NC(C)=C(C(N)=O)C2c2ccc([N+](=O)[O-])cc2)CC1 (stereo not shown) [Example 198]
3. CCC1=C(C(N)=O)C(c2ccc([N+](=O)[O-])cc2)C(C(=O)NCCCN2CCC(c3ccccc3)(c3ccccc3)CC2)=C(CCCCN)N1 (stereo not shown) [Example 171]
4. CCOC(=O)C1(c2ccccc2)CCN(CCCNC(=O)C2=C(COCCN)NC(CC)=C(C(=O)NC)C2c2ccc([N+](=O)[O-])cc2)CC1 (stereo not shown) [Example 194]

a:
1. 1.48
2. 2.45
3. 0.575
4. 1.07
